Experiment: SRA737 plasma and tumor concentrations in HT29 xenograft model
Format: in vivo
Details: mouse, plasma, oral; HT29 xenograft; Dose 50 mg/kg; read-out: Plasma (6 h)

{"compound": "N#Cc1cnc(Nc2cc(NCC3CNCCO3)c(C(F)(F)F)cn2)cn1 (stereo not shown)", "units symbol": "µM", "concentration at 6 h": 3.96}

----------
Assay: SRA737 plasma and tumor concentrations in HT29 xenograft model
Assay type: in vivo
Details: mouse, tumor, oral; HT29 xenograft; Dose 25 mg/kg; read-out: Tumor (24 h)

{"molecule": "N#Cc1cnc(Nc2cc(NCC3CNCCO3)c(C(F)(F)F)cn2)cn1 (stereo not shown) [SRA737]", "units symbol": "µM", "concentration at 24 h": 16.3}

----------
Assay: SRA737 plasma and tumor concentrations in HT29 xenograft model
Type: in vivo
Details: mouse, tumor, oral; HT29 xenograft; Dose 6.25 mg/kg; read-out: Tumor (24 h)

{"compound": "N#Cc1cnc(Nc2cc(NCC3CNCCO3)c(C(F)(F)F)cn2)cn1 (stereo not shown)", "concentration at 24 h, nM": 966}

----------
Assay: SRA737 plasma and tumor concentrations in HT29 xenograft model
Assay type: in vivo
Conditions: mouse, plasma, oral; HT29 xenograft; Dose 50 mg/kg; read-out: Plasma (24 h)

{"compound": "N#Cc1cnc(Nc2cc(NCC3CNCCO3)c(C(F)(F)F)cn2)cn1 (stereo not shown)", "concentration at 24 h": "512 nM"}

----------
Assay: SRA737 plasma and tumor concentrations in HT29 xenograft model
Format: in vivo
Conditions: mouse, tumor, oral; HT29 xenograft; Dose 100 mg/kg; read-out: Tumor (6 h)
quantity kind: concentration at 6 h (µM)

{"compound": "N#Cc1cnc(Nc2cc(NCC3CNCCO3)c(C(F)(F)F)cn2)cn1 (stereo not shown)", "endpoint value": 132}

----------
Assay: SRA737 plasma and tumor concentrations in HT29 xenograft model
Format: in vivo
Details: mouse, tumor, oral; HT29 xenograft; Dose 3.125 mg/kg; read-out: Tumor (6 h)
quantity kind: concentration at 6 h (µM)

{"molecule": "N#Cc1cnc(Nc2cc(NCC3CNCCO3)c(C(F)(F)F)cn2)cn1 (stereo not shown)", "quantity kind": "concentration at 6 h", "units symbol": "µM", "endpoint value": 3.18}

----------
Assay: SRA737 plasma and tumor concentrations in HT29 xenograft model
Format: in vivo
Conditions: mouse, tumor, oral; HT29 xenograft; Dose 50 mg/kg; read-out: Tumor (24 h)
quantity kind: concentration at 24 h (µM)

{"compound": "N#Cc1cnc(Nc2cc(NCC3CNCCO3)c(C(F)(F)F)cn2)cn1 (stereo not shown)", "quantity kind": "concentration at 24 h", "endpoint value": 27.5}

----------
Experiment: SRA737 plasma and tumor concentrations in HT29 xenograft model
Assay type: in vivo
Conditions: mouse, plasma, oral; HT29 xenograft; Dose 25 mg/kg; read-out: Plasma (24 h)

{"compound": "N#Cc1cnc(Nc2cc(NCC3CNCCO3)c(C(F)(F)F)cn2)cn1 (stereo not shown)", "units symbol": "nM", "concentration at 24 h": 893}

----------
Tested on: SNU-C1
Assay: Cell viability, colon cancer line SNU-C1
Format: cell-based
Details: Homo sapiens

{"compound": "N#Cc1cnc(Nc2cc(NCC3CNCCO3)c(C(F)(F)F)cn2)cn1 (stereo not shown)", "units symbol": "nM", "IC50": 1300}
